Values compiled from ChEMBL document CHEMBL4368861.

experiment: in vitro; details: human
Property: selectivity ratio

Sample answers from the record:
[
  {
    "Molecule": "CN1CCC(NCc2cccc(-c3ccc(S(=O)(=O)NCc4ccccc4)cc3)c2)CC1",
    "selectivity ratio": 59
  },
  {
    "Molecule": "COc1ccc2nccc(NC(=O)C3CCN(CCc4ccc(Cl)cc4)CC3)c2n1",
    "selectivity ratio": 0.8
  },
  {
    "Molecule": "OCCc1ccc(Nc2nccc(-c3nnc4ccccn34)n2)cc1",
    "selectivity ratio": 17
  },
  {
    "Molecule": "COc1cc(-c2cc(-c3ccc(S(C)(=O)=O)cc3)cnc2N)ccc1O",
    "selectivity ratio": 76
  }
]

The recorded selectivity ratio for entry CC(C)n1nc(-c2cc3c(Cl)cccc3[nH]2)c2c(N)ncnc21 equals 5.8

Entry CCCn1c(NC(=O)c2ccc3ccccc3n2)nc2ccccc21 ; selectivity ratio = 3.5

For Oc1c(I)cc(I)c2cccnc12 the molecule record lists selectivity ratio as 13

---

test: in vitro; conditions: human
Property: selectivity ratio
Just the number, please.

[
  {
    "Compound": "CC(Oc1ccccc1)C(=O)Nc1nc(-c2ccccn2)cs1 (stereo not drawn)",
    "selectivity ratio": 11
  },
  {
    "Compound": "CCOC(=O)c1c(NC(=O)c2c(F)c(F)c(F)c(F)c2F)sc(C(N)=O)c1C",
    "selectivity ratio": 2.2
  },
  {
    "Compound": "COC(=O)c1c(NC(=O)c2c(F)c(F)c(F)c(F)c2F)sc2c1CCCCC2",
    "selectivity ratio": 2.2
  },
  {
    "Compound": "c1ccc(-c2nc(NC3CCCCC3)cc(C3CC3)n2)nc1",
    "selectivity ratio": 30
  },
  {
    "Compound": "CN(C)c1cc(NC(=O)Nc2ccccc2)c2ccccc2n1",
    "selectivity ratio": 5.3
  },
  {
    "Compound": "COc1ccc(OC)c(NCc2ccc3nc(N)nc(N)c3c2Cl)c1",
    "selectivity ratio": 21
  },
  {
    "Compound": "CS(=O)(=O)c1ccc(C(=O)N(CC2CCCO2)c2nc3ccccc3s2)cc1[N+](=O)[O-] (stereo not drawn)",
    "selectivity ratio": 2.3
  }
]

Briefly, selectivity ratio measured for Cc1cnc(N2CCN[C@@H](Cc3ccccc3)C2)nc1Oc1ccc(-n2ccnc2)cc1 : 4.9
